The measurements presented in this section are drawn from paper PMC4584933.

System: SLA-2*05:02
Assay: Peptide-MHC class I complex stability, scintillation proximity assay (SPA)
Set-up: species or system pig
Details: biotinylated recombinant SLA heavy chain, 125I-β2m, excess unlabeled β2m, read every 40 min, number only if t1/2 ≥ 0.5 h, '-' = not stably binding
Decide by Binder (t1/2 ≥ 0.5 h): half-life of peptide-SLA-2*05:02 complex: equal to or exceeding 3 h means fulfilled, less means not fulfilled.

Some solved cases for reference:
EIAAASAIKV [IDO15, porcine IDO-derived 9-11mer peptide] | not fulfilled
VPTVFENYI [RhoC54, porcine RhoC-derived 9-11mer peptide] | not fulfilled

Here is another sequence to look at.
Identify whether the reported Binder (t1/2 ≥ 0.5 h): half-life of peptide-SLA-2*05:02 complex of the following sequence is 3 h or greater: YVPTVFENYI [RhoC61, porcine RhoC-derived 9-11mer peptide]
not fulfilled
